- Test system: IGROV1 ovarian
- assayRemarks: NCI tumour cell line growth inhibition, 48 h; in the data active = GI50 below about 0.43 µM; inactive = the rest
Choose the fitting class; nothing outside 1 = active, -1 = inactive is accepted.

Example cases with answers are listed next.
Asked: Hi, sorry to bother you, what did the test record for `CCNCCCn1c2c(c3ccc(F)cc3c1=O)C(=O)c1cc(OC)cnc1-2` ?
Given back: 1

Asked: Called result for `O=[N+]([O-])c1ccc(C(Br)c2ccc([N+](=O)[O-])cc2)cc1`
Given back: -1

Asked: Which result was noted for this compound in the test: `C=C1C(=O)O[C@H]2[C@H]1CC/C(CNC(=O)c1cccc3ccccc13)=C\CC[C@@]1(C)O[C@@H]21`
Given back: -1

Asked: Per the records of this test, what outcome belongs to `CN(C)c1ccc(Nc2ncnc3ccccc23)cc1` ?
Given back: -1

Asked: // return assay outcome for `O=C1NC(=O)/C(=C/c2c(Cl)nc3sccn23)S1`
Given back: -1

Asked: Please state the recorded outcome for this compound: COC(=O)C1=C(OC(=O)c2ccccc2)C(C(=O)OC)[C@]2(O)[C@@H](C(=O)OC)C1CC(c1ccccc1OC)[C@@H]2C(=O)OC (some centres undefined)
Given back: -1

Others:
Asked: # fetch the recorded call for `O=c1c2c([nH]c3ccccc13)CCCC2` here
Given back: -1

Asked: GET /call?item= `CC1(C)CCC2(CC1)N[C@@H](C(=O)N[C@@H]1CC[C@@H](C(N)=O)OC1)[C@H](c1ccnc(Cl)c1F)[C@]21C(=O)Nc2cc(Cl)ccc21` returns the recorded outcome of this test.
Given back: -1

Asked: Given `CCOC(=O)Cc1csc(NC(=O)COC(=O)c2ccc(N)cc2)n1` , state the outcome it received in this test.
Given back: -1

====

- Tested on: LOX IMVI melanoma
- assayRemarks: NCI tumour cell line growth inhibition, 48 h
property: TGI (µM)
Give the number; µM is assumed, so skip it.

Record excerpt, results attached:
Asked: Provide LOX IMVI melanoma TGI reading for `CCOC(=O)Cc1csc(NC(=O)COC(=O)c2ccc(N)cc2)n1` .
Given back: 34.6

Asked: Lab note: LOX IMVI melanoma assay, enter TGI for `C[C@]1(O)CC[C@H]2[C@@H]3CCc4cc(O)ccc4[C@H]3CC[C@@]21C` here
Given back: 72.5

Asked: Give TGI for CC1CN=C(N(Cc2ccc(F)cc2)C(=O)Nc2ccc(Cl)cc2)S1 (stereo not given) tested on LOX IMVI melanoma.
Given back: 54.5

Asked: Provide TGI, recorded with LOX IMVI melanoma, of `COc1ccc(C(c2ccc(C(C)C)cc(OC)c2=O)c2ccc(C(C)C)cc(OC)c2=O)cc1`
Given back: 31

Asked: Supply TGI measured with LOX IMVI melanoma for `O=C(C=P(c1ccccc1)(c1ccccc1)c1ccccc1)c1ccc(-c2cccc([N+](=O)[O-])c2)cc1` .
Given back: 4.15

Asked: Give the observed TGI of `C=C1C(=O)O[C@H]2[C@H]1CC/C(CNC(=O)c1cccc3ccccc13)=C\CC[C@@]1(C)O[C@@H]21` for LOX IMVI melanoma.
Given back: 3.19

Asked: Fill in TGI for `COc1ccc(C(=C[N+](=O)[O-])c2ccc(OC)cc2)cc1` tested with LOX IMVI melanoma.
Given back: 46.4

Asked: Retrieve TGI on LOX IMVI melanoma; query `C[CH2][Sn]([CH2]C)([O]C(=O)c1cccc(OC)c1)[O][Sn]([CH2]C)([CH2]C)[O]C(=O)c1cccc(OC)c1`
Given back: 25.9

Asked: Provide TGI, system LOX IMVI melanoma, entry `CC(C)=CC(=O)c1[nH]c2ccccc2c1CC(=O)NCCc1cn(C(c2ccccc2)(c2ccccc2)c2ccccc2)cn1`
Given back: 4.46

Asked: Specify TGI for `N#Cc1c2c(c(Cl)n3c1nc1ccccc13)CCCC2` , system LOX IMVI melanoma.
Given back: 4.57

Now take the following compound into account.
Asked: Give TGI for this entry on LOX IMVI melanoma: `CC(C)/C(Cl)=N\OC(=O)Nc1ccc(F)cc1`
Given back: 5.73
